B1: library; a variant is named by its letters at N, in order (parent)
chain: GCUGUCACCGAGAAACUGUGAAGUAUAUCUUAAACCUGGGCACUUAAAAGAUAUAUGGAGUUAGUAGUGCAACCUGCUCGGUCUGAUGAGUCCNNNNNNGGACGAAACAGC

# Variants of: B1
# EXPERIMENT: normalized RNA/DNA level with ligand (relative to sTRSVctl = 100) (log10 (% of sTRSVctl)); HEK293T; ligand: cyclic di-GMP (c-di-GMP-II aptamer); ligand concentration (+) RNA-Seq: 1 mM; higher = less ribozyme self-cleavage, higher mRNA level
# TEST_CONTEXT: reporter: mCherry (pCS4076), ligand present: yes
QUANTITY_NAME: normalized RNA/DNA level with ligand (log10)

AGAGGA : 1.56
CAUACA : 1.58

query: What normalized RNA/DNA level with ligand (log10) value was documented for this variant, `CGAUGU` ?
result: 1.91
